Test system: 997726-040-R-J2-PDC tumor spheroids, viability;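 note: spheroids exposed to compounds for seven days before readout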
Assay Comment: Anticancer human tumor 997726-040-R-J2-PDC patient-derived squamous cell lung carcinoma cell line growth inhibition [PI3K]
Measurement Parameters: second compound 10 µM; first compound 3.16 µM; stronger effect = lower value; spheroids with HUVEC and MSC
Each entry below lists one item and its recorded viability, T/C value.

{"columns": ["Compound", "Result Unit", "viability, T/C"],
 "data": [
  ["CCCS(=O)(=O)Nc1ccc(F)c(C(=O)c2c[nH]c3ncc(-c4ccc(Cl)cc4)cc23)c1F + Cc1nc(NC(=O)N2CCCC2C(N)=O)sc1-c1ccnc(C(C)(C)C(F)(F)F)c1", "%", 11.9],
  ["C[C@@H](NC(=O)c1ncnc(N)c1Cl)c1ncc(C(=O)Nc2cc(C(F)(F)F)c(Cl)cn2)s1 + CC(Nc1ncnc2nc[nH]c12)c1cc2cccc(Cl)c2c(=O)n1-c1ccccc1", "%", 52.3],
  ["C#Cc1c(F)ccc2cc(O)cc(-c3ncc4c(N5CC6CCC(C5)N6)nc(OCC56CCCN5CC(F)C6)nc4c3F)c12 (centres undefined) + CC(Nc1ncnc2nc[nH]c12)c1cc2cccc(Cl)c2c(=O)n1-c1ccccc1", "%", 39.1],
  ["C=CC(=O)N1CCN(c2nc(=O)n(-c3c(C)ccnc3C(C)C)c3nc(-c4c(O)cccc4F)c(F)cc23)C(C)C1 (centres undefined) + CC(Nc1ncnc2nc[nH]c12)c1cc2cccc(Cl)c2c(=O)n1-c1ccccc1", "%", 64.7]
]}
